System: P. falciparum female gametocytes
TEST METHOD NOTES: P. falciparum Dual Gamete Formation Assay (PfDGFA), female readout (Pfs25-positive female gametes)
Type: cell-based, Plasmodium falciparum NF54
Description: […] The Pf DGFA was performed as described in Delves et al. 2016 [17]. […] Exflagellation was recorded by capturing 10 frames over 1 s under brightfield illumination using a x4 objective with a 1.5x zoom (effectively x6) attached to an automated Nikon Ti fluorescence microscope. […] The plates were then returned to the microscope and female gametes imaged at x6 using fluorescence microscopy. […]
MEASURED ENDPOINT: Cytotox ratio Pf Female
Give bare numbers.

[
  {
    "MOLECULE": "C=CCN(C(=O)c1ccc(Cl)c([N+](=O)[O-])c1)c1nc(-c2ccccc2)cs1",
    "Cytotox ratio Pf Female": 164.1
  }
]

Below is a list of molecules. For each, state its recorded Cytotox ratio Pf Female.
1. O=C(c1ccc([N+](=O)[O-])o1)N1CCC(Cc2ccc(C(F)(F)F)cc2)CC1
2. COc1cccc(C23NC(=Nc4nc5ccccc5[nH]4)NC2(c2cccc(OC)c2)NC(=Nc2nc4ccccc4[nH]2)N3)c1 (centres unmarked)
3. CCC1=C[C@@H]2CN(C1)Cc1c([nH]c3ccccc13)[C@@](C(=O)OC)(c1cc3c(cc1OC)N(C)[C@H]1[C@@](O)(C(=O)OC)[C@H](O)[C@]4(CC)C=CCN5CC[C@]31[C@@H]54)C2.O=S(=O)(O)O
4. COc1ccc2nc(N=C3NC4(c5ccccc5)NC(=Nc5nc6ccc(OC)cc6[nH]5)NC4(c4ccccc4)N3)[nH]c2c1.O=C(O)C(F)(F)F (centres unmarked)
5. CC(C)(CN)c1nc(-c2ccc(Br)c(O)c2)c(-c2ccncc2)[nH]1.Cl

Out:
1. 52.7
2. 28.1
3. 4.8
4. 8.2
5. 112.9

====

System: P. falciparum male gametocytes
TEST METHOD NOTES: P. falciparum Dual Gamete Formation Assay (PfDGFA), male readout (exflagellation)
Assay type: cell-based, Plasmodium falciparum NF54
CONDITION INFO: 2µM, 24h preincubation; number of replicates with >50% inhibition in the male readout
Kindly state HitlevelM for each of the entries shown.
Numbers only.

Consider the reported HitlevelM for these compounds:
[
  {
    "COMPOUND": "COc1ccc2ccccc2c1CCCCN1CCN(CC(c2ccc(F)cc2)N2CCC2)CC1.O=C(O)C(F)(F)F (stereo not shown)",
    "OBS VALUE": 0
  },
  {
    "COMPOUND": "CCc1c(CCNCCCCCCNCCc2ccc(OC)c(OC)c2CC)ccc(OC)c1OC.Cl",
    "OBS VALUE": 3
  }
]

Below is a list of compounds. For each, state its recorded HitlevelM.
1. CN(C)CCC1CCN(CCS(=O)(=O)c2cccc(Nc3ncc(-c4cccc(F)c4)cn3)c2)CC1
2. CN1CCN(Cc2cccc(-c3ccc4c(Nc5ccc(Oc6ccccc6)cc5)ccnc4c3)c2)CC1
3. CC(C)N1CCN(C(CN2CCN(CCCOc3ccccc3-c3ccccc3)CC2)c2ccc(F)cc2)CC1.Cl (stereo not shown)
4. Cl.c1ccc2c(NCCCCCCCNc3ccnc4ccccc34)ccnc2c1
5. Cc1cccc2nc(-c3ccc(-c4cccc(CNCCN5CCNCC5)c4)cc3)[nH]c12.O=C(O)C(F)(F)F
6. Br.Oc1ccc(CCNCCCCCCNCCc2ccc(Cl)c3ccccc23)cc1O

Out:
[0, 0, 0, 1, 3, 3]

Below is a list of compounds. For each, state its recorded HitlevelM.
1. Cc1c(Cl)cccc1S(=O)(=O)Nc1ccc(CCN2CCC(N)CC2)cc1.Cl
2. CC(C)COc1ccc2ccccc2c1CNCCCCCCNCc1c(OCC(C)C)ccc2ccccc12.CS(=O)(=O)O
3. COc1ccc2nc(-c3cc(-c4ccc(NC(C)=O)cc4)cnc3N)[nH]c2c1
4. c1ccc(Oc2ccc(Nc3ccnc4cc(-c5cccc(CNCCN6CCOCC6)c5)ccc34)cc2)cc1
5. CN1CCCC1CCNCc1cccc(-c2cnc(N3CCCC(C)(C)C3)nc2)c1 (stereo not shown)

Out:
0
2
3
0
3
